Would you mind telling me the reported viability, T/C of each entry?
# Tested on: 282377-053-R-J1-PDC complex spheroid viability;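 note: spheroids exposed to agents for seven days before readout; luminescence viability as percent of DMSO vehicle control wells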
# Measurement Description: Anticancer human tumor 282377-053-R-J1-PDC patient-derived colon adenocarcinoma cell line growth inhibition [RAS]
# Setup Conditions: second compound 0.03 µM; first compound 0.316 µM; active compounds read low
# Description: RAS pathway inhibitors in Combinations in Complex Spheroids A high-throughput screen of multi-cell type tumor spheroids was designed to identify active combinations of RAS pathway inhibitors and targeted small molecules. Complex spheroids include a stromal component modeled by human endothelial cells (HUVEC) and fibroblasts modeled by human mesenchymal stem cells (MSCs). […] Compounds. […] If the clinical Cmax for an agent had not been determined, the highest concentration tested was 10 microM. […]
Respond numerically; units are % and should not be typed.

QUERY: Tell me measured viability, T/C for NC1c2ccccc2OC12CCN(c1cnc3c(N4CCCc5ncccc54)n[nH]c3n1)CC2 (stereo not drawn) + CCn1c(-c2cc(N3CCN(C)CC3)cnc2C(C)OC)c2c3cc(ccc31)-c1csc(n1)CC(NC(=O)C1CC1C)C(=O)N1CCCC(N1)C(=O)OCC(C)(C)C2 please.
RESULT: 101

QUERY: Tell me measured viability, T/C for CC(=O)OC12COC1CC(O)C1(C)C(=O)C(O)C3=C(C)C(OC(=O)C(O)C(NC(=O)OC(C)(C)C)c4ccccc4)CC(O)(C(OC(=O)c4ccccc4)C21)C3(C)C (stereo not drawn) + CCn1c(-c2cccnc2C(C)OC)c2c3cc(ccc31)N1CCOC(CC(NC(=O)C(C(C)C)N(C)C(=O)C3(F)CCN(C(=O)C#CC(C)(C)N(C)C)CC3)C(=O)N3CCCC(N3)C(=O)OCC(C)(C)C2)C1 please.
RESULT: 38.4

QUERY: Tell me measured viability, T/C for C[C@@H](NC(=O)c1ncnc(N)c1Cl)c1ncc(C(=O)Nc2cc(C(F)(F)F)c(Cl)cn2)s1 + CCn1c(-c2cccnc2C(C)OC)c2c3cc(ccc31)N1CCOC(CC(NC(=O)C(C(C)C)N(C)C(=O)C3(F)CCN(C(=O)C#CC(C)(C)N(C)C)CC3)C(=O)N3CCCC(N3)C(=O)OCC(C)(C)C2)C1 please.
RESULT: 91

QUERY: Tell me measured viability, T/C for CCC(CC)c1cc(NC2CCC(N)C2)n2nccc2n1 (stereo not drawn) + CCn1c(-c2cccnc2C(C)OC)c2c3cc(ccc31)N1CCOC(CC(NC(=O)C(C(C)C)N(C)C(=O)C3(F)CCN(C(=O)C#CC(C)(C)N(C)C)CC3)C(=O)N3CCCC(N3)C(=O)OCC(C)(C)C2)C1 please.
RESULT: 102

QUERY: Tell me measured viability, T/C for CC(C)NCC(C(=O)N1CCN(c2ncnc3c2C(C)CC3O)CC1)c1ccc(Cl)cc1 (stereo not drawn) + CCn1c(-c2cccnc2C(C)OC)c2c3cc(ccc31)N1CCOC(CC(NC(=O)C(C(C)C)N(C)C(=O)C3(F)CCN(C(=O)C#CC(C)(C)N(C)C)CC3)C(=O)N3CCCC(N3)C(=O)OCC(C)(C)C2)C1 please.
RESULT: 81.3

QUERY: Tell me measured viability, T/C for CCC(CC)c1cc(NC2CCC(N)C2)n2nccc2n1 (stereo not drawn) + CCn1c(-c2cc(N3CCN(C)CC3)cnc2C(C)OC)c2c3cc(ccc31)-c1csc(n1)CC(NC(=O)C1CC1C)C(=O)N1CCCC(N1)C(=O)OCC(C)(C)C2 please.
RESULT: 85.7

QUERY: Tell me measured viability, T/C for CCN1CCN(Cc2ccc(Nc3ncc(F)c(-c4cc(F)c5nc(C)n(C(C)C)c5c4)n3)nc2)CC1 + CCn1c(-c2cc(N3CCN(C)CC3)cnc2C(C)OC)c2c3cc(ccc31)-c1csc(n1)CC(NC(=O)C1CC1C)C(=O)N1CCCC(N1)C(=O)OCC(C)(C)C2 please.
RESULT: 131

QUERY: Tell me measured viability, T/C for Nc1ccn(C2OC(CO)C(O)C2(F)F)c(=O)n1 (stereo not drawn) + CCn1c(-c2cc(N3CCN(C)CC3)cnc2C(C)OC)c2c3cc(ccc31)-c1csc(n1)CC(NC(=O)C1CC1C)C(=O)N1CCCC(N1)C(=O)OCC(C)(C)C2 please.
RESULT: 86.7

The origin of these recorded values is PubChem BioAssay AID2060905.
